Hey, just so you know, these numbers are from the supplement of paper PMC7017272.

system: UT-SCC-8; assay: relative IC50 (midpoint of the fitted curve; maximal inhibition may be below 50%); higher = less potent; details: culture condition: plastic 2D (no matrix); treatment time: 3 days
property: relative IC50 (nM)

molecule	relation	endpointValue
Cc1c(CN2CCN(C(=O)[C@H](C)O)CC2)sc2c(N3CCOCC3)nc(-c3cnc(N)nc3)nc12 [Apitolisib]	=	1410
C=CC(=O)Nc1cc2c(Nc3ccc(F)c(Cl)c3)ncnc2cc1OCCCN1CCOCC1 [Canertinib]	=	39.3
COc1ncc(-c2ccc3nccc(-c4ccnnc4)c3c2)cc1NS(=O)(=O)c1ccc(F)cc1F [Omipalisib]	=	6.97
COc1cc(F)c(F)c(Nc2ccc(I)cc2F)c1NS(=O)(=O)C1(C[C@H](O)CO)CC1 [Refametinib]	=	602
CO[C@H]1C[C@@H]2CC[C@@H](C)[C@@](O)(O2)C(=O)C(=O)N2CCCC[C@H]2C(=O)O[C@H]([C@H](C)C[C@@H]2CC[C@@H](OC(=O)C(C)(CO)CO)[C@H](OC)C2)CC(=O)[C@H](C)/C=C(\C)[C@@H](O)[C@@H](OC)C(=O)[C@H](C)C[C@H](C)/C=C/C=C/C=C/1C [Temsirolimus]	=	0.669
CN(C)C/C=C/C(=O)Nc1cc2c(Nc3ccc(F)c(Cl)c3)ncnc2cc1O[C@H]1CCOC1 [Afatinib]	=	21.6
O=C(NC[C@H](O)CO)c1ccncc1Nc1ccc(I)cc1F [Pimasertib]	=	228
Cn1c(=O)n(-c2ccc(C(C)(C)C#N)cc2)c2c3cc(-c4cnc5ccccc5c4)ccc3ncc21 [Dactolisib]	>	989

###

system: UT-SCC-42B; experiment: drug sensitivity score (DSS); higher = more sensitive; extreme values may be limits of the assay; details: culture condition: on top of Matrigel; treatment time: 3 days
property: drug sensitivity score (DSS)

structureAsSmiles	studyTarget	unit	endpointValue
CO[C@H]1C[C@@H]2CC[C@@H](C)[C@@](O)(O2)C(=O)C(=O)N2CCCC[C@H]2C(=O)O[C@H]([C@H](C)C[C@@H]2CC[C@@H](OC(=O)C(C)(CO)CO)[C@H](OC)C2)CC(=O)[C@H](C)/C=C(\C)[C@@H](O)[C@@H](OC)C(=O)[C@H](C)C[C@H](C)/C=C/C=C/C=C/1C	UT-SCC-42B	DSS	0
Cn1cnc2c(F)c(Nc3ccc(Br)cc3Cl)c(C(=O)NOCCO)cc21	UT-SCC-42B	DSS	8.67
COc1cc(F)c(F)c(Nc2ccc(I)cc2F)c1NS(=O)(=O)C1(C[C@H](O)CO)CC1	UT-SCC-42B	DSS	15.7
CC(=O)Nc1cccc(-n2c(=O)n(C3CC3)c(=O)c3c(Nc4ccc(I)cc4F)n(C)c(=O)c(C)c32)c1	UT-SCC-42B	DSS	9.67

###

system: UT-SCC-24B; assay: relative IC50 (midpoint of the fitted curve; maximal inhibition may be below 50%); higher = less potent; conditions: culture condition: embedded in Myogel + collagen I; treatment time: 3 days
// values below are reported relative IC50

compound	unit	relative IC50
C=CC(=O)Nc1cc2c(Nc3ccc(F)c(Cl)c3)ncnc2cc1OCCCN1CCOCC1 [Canertinib]	nM	1530
Cc1c(CN2CCN(C(=O)[C@H](C)O)CC2)sc2c(N3CCOCC3)nc(-c3cnc(N)nc3)nc12 [Apitolisib]	nM	736
COc1cc(F)c(F)c(Nc2ccc(I)cc2F)c1NS(=O)(=O)C1(C[C@H](O)CO)CC1 [Refametinib]	nM	808
CO[C@H]1C[C@@H]2CC[C@@H](C)[C@@](O)(O2)C(=O)C(=O)N2CCCC[C@H]2C(=O)O[C@H]([C@H](C)C[C@@H]2CC[C@@H](OP(C)(C)=O)[C@H](OC)C2)CC(=O)[C@H](C)/C=C(\C)[C@@H](O)[C@@H](OC)C(=O)[C@H](C)C[C@H](C)/C=C/C=C/C=C/1C [Ridaforolimus]	nM	1.48
Cn1c(=O)c(F)c(Nc2ccc(I)cc2F)c2c(=O)n(C[C@@H](O)CO)cnc21 [TAK-733]	nM	62.7
Cn1cnc2c(F)c(Nc3ccc(Br)cc3Cl)c(C(=O)NOCCO)cc21 [Selumetinib]	nM	165
